The reader will find reported t/2 diss. [min] 25° C. values listed item by item below.
Molecular target: T1, Biotinylated human soluble TWEAK (human, UniProt O43508 99-249, limits assumed, biotinylated (sites not given))
T1 construct: also called Human TWEAK
T1 sequence (looked up): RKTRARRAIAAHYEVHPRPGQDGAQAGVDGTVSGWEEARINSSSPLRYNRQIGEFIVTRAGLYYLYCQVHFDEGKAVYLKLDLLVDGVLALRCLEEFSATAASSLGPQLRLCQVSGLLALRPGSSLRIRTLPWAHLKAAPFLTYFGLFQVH
Experiment: Biacore SPR, biotinylated human soluble TWEAK on streptavidin sensor, antibody 100 nM as analyte, 25° C.
Protocol: A Biacore 2000 instrument was used with a Biacore streptavidin coated sensor mounted into the system. The system buffer HBS-ET (10 mM HEPES pH 7.4, 150 mM NaCl, 1 mM EDTA, 0.05% Tween® 20) was used at a flow rate of 100 μl/min. The sample buffer was the system buffer. […] The dissociation of the immunecomplexes were monitored for 5 min. […] According to the equation t1/2 diss=ln(2)/(60×kd), the half-life of each immunocomplexe in minutes was calculated.
Provide only the numeric value, understood in min.

Worked cases, t/2 diss. [min] 25° C. given:
binder	measureName	resultNumber
Antibody 24 (antibody, V domains shown) VH: QVQLQESGPGLVKPSETLSLTCTVSGYSIRSGYWWSWIRQPPGKGLEWIGQIYNKGNTDNSPSLKSRVTISVDTSKNQFSLKLSSVTAADTAVYYCARVFWDDAYFDVWGQGTMVTVSS VL: EIVLTQSPGTLSLSPGERATLSCKASQSVSIGPIHLMHWYQQKPGQAPRLLIYGASNPESGIPDRFSGSGSGTDFTLTISRLEPEDFAVYYCQQGKESPRTFGQGTKLEIK	t/2 diss. [min] 25° C.	15
Antibody 17 (antibody, V domains shown) VH: QVQLQESGPGLVKPSETLSLTCTVSGYSIRSGYWWSWIRQPPGKGLEWIGQIYNKGNTDNNPALKSRVTISVDTSKNQFSLKLSSVTAADTAVYYCARVFWDDAYFDVWGQGTMVTVSS VL: EIVLTQSPATLSLSPGERATLSCKASQSVSIGPIHLMHWYQQKPGQAPRLLIYGASNPESGIPARFSGSGSGTDFTLTISSLEPEDFAVYYCQQGKESPRTFGQGTKLEIK	t/2 diss. [min] 25° C.	18

API: the following record is the query input.
Item Antibody 15 (antibody, V domains shown) VH: QVQLQESGPGLVKPSETLSLTCAVSGYSIRSGYWWSWIRQPPGKGLEWIGQIYNKGNTDNNPALKSRVTISVDTSKNQFSLKLSSVTAADTAVYYCARVFWDDAYFDVWGQGTMVTVSS VL: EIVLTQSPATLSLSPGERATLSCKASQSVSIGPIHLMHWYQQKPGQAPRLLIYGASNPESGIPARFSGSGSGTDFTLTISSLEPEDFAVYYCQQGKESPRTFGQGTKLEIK has what recorded t/2 diss. [min] 25° C.? 18
